Experiment: Lipid degradability by human lung S9 in vitro
Assay type: in vitro ADME
Conditions: 2 μM lipid, 2.4 mg/ml lung S9, pH 7.4, 37° C., time points up to 48 hr
Method: Assay format—4 or 5 time points in triplicate. • 1) Plan experiment, compounds, and reagents. • 2) Dissolve each lipid in DMSO or IPA to make 5 mM stock, then dilute by IPA to 200 μM work solution. • 3) Thaw mouse and human lung S9. • 4) Prepare pooled incubation mixture as in the reaction formulas below on ice. • 5) Aliquot 495 μL incubation mixture prepared in step #4 to each well of a 2 mL 96-well plate. • 6) Add 5 μL compound to each well to initiate the reaction. […]
Attribute Measured: In vitro degradation Human lung S9 (h)

{"Mol": "CCCCCCCCOC(=O)CC(CC(=O)OCCCCCCCC)(OC(=O)CCC(=O)Oc1c(OC)cc(C(=O)OCCN(C)C)cc1OC)C(=O)OCCCCCCCC", "In vitro degradation Human lung S9 / h": 20.2}
{"Mol": "CCCCCCCCOC(=O)CC(CC(=O)OCCCCCCCC)(OC(=O)CCC(=O)Oc1c(OC)cc(C(=O)OCCCN(C)C)cc1OC)C(=O)OCCCCCCCC", "In vitro degradation Human lung S9 / h": 20.2}
{"Mol": "CCCCCC#CCOC(=O)CC(CC(=O)OCC#CCCCCC)(OC(=O)CCC(=O)Oc1c(OC)cc(C(=O)OCCCN(C)C)cc1OC)C(=O)OCC#CCCCCC", "In vitro degradation Human lung S9 / h": 14.8}
{"Mol": "CCCCC/C=C/COC(=O)CC(CC(=O)OC/C=C/CCCCC)(OC(=O)CCC(=O)Oc1c(OC)cc(C(=O)OCCCN(C)C)cc1OC)C(=O)OC/C=C/CCCCC", "In vitro degradation Human lung S9 / h": 17.1}
